Recorded IC50 at 24 h, one value per entry.
assay.method.text: BALB/c 3T3 Neutral Red Uptake cytotoxicity assay (safety test)
measurement.setup: mouse, BALB/c 3T3 clone A31 mouse embryonic fibroblasts
Square brackets hold non-standard residues; d marks the D form. Peptide text beside a SMILES is read from it.

{"compound": "C[C@@H](O)[C@H](NC(=O)[C@H](Cc1ccccc1)NC(=O)[C@@H](NC(=O)[C@H](CCCCN)NC(=O)[C@@H](Cc1c[nH]c2ccccc12)NC(=O)[C@H](Cc1ccc(O)cc1)NC(=O)[C@H](Cc1ccc(O)cc1)NC(=O)[C@H](N)Cc1ccccc1)[C@@H](C)O)C(N)=O [D101] (H-[dF]YY[dW]KTFT-NH2)", "IC50 at 24 h": "> 1000 µM"}
{"compound": "C[C@@H](O)[C@H](NC(=O)[C@H](Cc1ccc(O)cc1)NC(=O)[C@@H](NC(=O)[C@H](CCCCN)NC(=O)[C@@H](Cc1c[nH]c2ccccc12)NC(=O)[C@H](Cc1ccc(O)cc1)NC(=O)[C@H](Cc1ccc(O)cc1)NC(=O)[C@H](N)Cc1ccccc1)[C@@H](C)O)C(N)=O [D61] (H-[dF]YY[dW]KTYT-NH2)", "IC50 at 24 h": "> 1000 µM"}

* * *

The entries below are paired with their reported IC50 at 24 h.
assay.method.text: BALB/c 3T3 Neutral Red Uptake cytotoxicity assay (safety test)
measurement.setup: mouse
Square brackets hold non-standard residues; d marks the D form. Peptide text beside a SMILES is read from it.

{"molecule": "C[C@@H](O)[C@H](NC(=O)[C@H](Cc1ccc(O)cc1)NC(=O)[C@@H](NC(=O)[C@H](CCCCN)NC(=O)[C@@H](Cc1c[nH]c2ccccc12)NC(=O)[C@H](Cc1ccccc1)NC(=O)[C@H](Cc1ccc(O)cc1)NC(=O)[C@@H](N)Cc1ccc(O)cc1)[C@@H](C)O)C(N)=O [D7] (H-YYF[dW]KTYT-NH2)", "IC50 at 24 h": "737 µM"}
{"molecule": "C[C@@H](O)[C@H](NC(=O)[C@H](Cc1ccccc1)NC(=O)[C@@H](NC(=O)[C@H](CCCCN)NC(=O)[C@@H](Cc1c[nH]c2ccccc12)NC(=O)[C@H](Cc1ccc(O)cc1)NC(=O)[C@H](Cc1ccc(O)cc1)NC(=O)[C@H](N)Cc1ccccc1)[C@@H](C)O)C(N)=O [D101] (H-[dF]YY[dW]KTFT-NH2)", "IC50 at 24 h": "1400 µM"}
{"molecule": "C[C@@H](O)[C@H](NC(=O)[C@H](Cc1ccc(O)cc1)NC(=O)[C@@H](NC(=O)[C@H](CCCCN)NC(=O)[C@@H](Cc1c[nH]c2ccccc12)NC(=O)[C@H](Cc1ccccc1)NC(=O)[C@H](Cc1ccccc1)NC(=O)[C@H](N)Cc1ccccc1)[C@@H](C)O)C(N)=O [DD8] (H-[dF]FF[dW]KTYT-NH2)", "IC50 at 24 h": "483 µM"}
{"molecule": "C[C@@H](O)[C@H](NC(=O)[C@H](Cc1ccc(O)cc1)NC(=O)[C@@H](NC(=O)[C@H](CCCCN)NC(=O)[C@@H](Cc1c[nH]c2ccccc12)NC(=O)[C@H](Cc1ccc(O)cc1)NC(=O)[C@H](Cc1ccc(O)cc1)NC(=O)[C@H](N)Cc1ccccc1)[C@@H](C)O)C(N)=O [D61] (H-[dF]YY[dW]KTYT-NH2)", "IC50 at 24 h": "1200 µM"}

* * *

As shown below, each of these compounds has a reported pIC50 value.
Tested on: MCF-10A breast epithelial cells
measurement.setup: 72 h
Protocol: The breast cancer cells MDA-MB-231 (ATCC: HTB-26) and MCF-7 (ATCC: HTB-22) were used to determine antiproliferative activity under in vitro conditions. […] Cell viability was determined by a colorimetric MTT-dye reduction assay. […] The concentration of formazan, which is directly proportional to cell viability, was determined by a spectrophotometric method. […] The formazan concentration was measured spectrophotometrically by a microplate reader at a wavelength of 540 nm. […]
pIC50: −log10 of the molar value. Square brackets hold non-standard residues; d marks the D form. Peptide text beside a SMILES is read from it.
endpoint.name: pIC50

{"compound": "C[C@@H](O)[C@H](NC(=O)[C@H](Cc1ccccc1)NC(=O)[C@@H](NC(=O)[C@H](CCCCN)NC(=O)[C@@H](Cc1c[nH]c2ccccc12)NC(=O)[C@H](Cc1ccccc1)NC(=O)[C@H](Cc1ccccc1)NC(=O)[C@H](N)Cc1ccccc1)[C@@H](C)O)C(N)=O [BIM-23052, D-Phe-Phe-Phe-D-Trp-Lys-Thr-Phe-Thr-NH2] (H-[dF]FF[dW]KTFT-NH2)", "val": 3.69}
{"compound": "C[C@@H](O)[C@H](NC(=O)[C@H](Cc1ccc(O)cc1)NC(=O)[C@@H](NC(=O)[C@H](CCCCN)NC(=O)[C@@H](Cc1c[nH]c2ccccc12)NC(=O)[C@H](Cc1ccc(O)cc1)NC(=O)[C@H](Cc1ccc(O)cc1)NC(=O)[C@H](N)Cc1ccc(O)cc1)[C@@H](C)O)C(N)=O [D91] (H-[dY]YY[dW]KTYT-NH2)", "val": 3.27}

* * *

Catalogue of compounds with associated IC50
Test system: MCF-10A breast epithelial cells
measurement.setup: 72 h
Square brackets hold non-standard residues; d marks the D form. Peptide text beside a SMILES is read from it.

{"compound": "C[C@@H](O)[C@H](NC(=O)[C@H](Cc1ccc(O)cc1)NC(=O)[C@@H](NC(=O)[C@H](CCCCN)NC(=O)[C@@H](Cc1c[nH]c2ccccc12)NC(=O)[C@H](Cc1ccccc1)NC(=O)[C@H](Cc1ccccc1)NC(=O)[C@H](N)Cc1ccccc1)[C@@H](C)O)C(N)=O [DD8] (H-[dF]FF[dW]KTYT-NH2)", "IC50": "161 µM"}
{"compound": "C[C@@H](O)[C@H](NC(=O)[C@H](Cc1ccc(O)cc1)NC(=O)[C@@H](NC(=O)[C@H](CCCCN)NC(=O)[C@@H](Cc1c[nH]c2ccccc12)NC(=O)[C@H](Cc1ccc(O)cc1)NC(=O)[C@H](Cc1ccc(O)cc1)NC(=O)[C@H](N)Cc1ccccc1)[C@@H](C)O)C(N)=O [D61] (H-[dF]YY[dW]KTYT-NH2)", "IC50": "555 µM"}
{"compound": "C[C@@H](O)[C@H](NC(=O)[C@H](Cc1ccccc1)NC(=O)[C@@H](NC(=O)[C@H](CCCCN)NC(=O)[C@@H](Cc1c[nH]c2ccccc12)NC(=O)[C@H](Cc1ccc(O)cc1)NC(=O)[C@H](Cc1ccc(O)cc1)NC(=O)[C@H](N)Cc1ccccc1)[C@@H](C)O)C(N)=O [D101] (H-[dF]YY[dW]KTFT-NH2)", "IC50": "604 µM"}

* * *

Test system: MDA-MB-231 breast cancer cells
measurement.setup: SI = IC50 MCF-10A/IC50 MDA-MB-231
Square brackets hold non-standard residues; d marks the D form. Peptide text beside a SMILES is read from it.

{"compound": "C[C@@H](O)[C@H](NC(=O)[C@H](Cc1ccc(O)cc1)NC(=O)[C@@H](NC(=O)[C@H](CCCCN)NC(=O)[C@@H](Cc1c[nH]c2ccccc12)NC(=O)[C@H](Cc1ccccc1)NC(=O)[C@H](Cc1ccc(O)cc1)NC(=O)[C@@H](N)Cc1ccc(O)cc1)[C@@H](C)O)C(N)=O [D7] (H-YYF[dW]KTYT-NH2)", "Selectivity index SI, MDA-MB-231": 0.55}
{"compound": "C[C@@H](O)[C@H](NC(=O)[C@H](Cc1ccc(O)cc1)NC(=O)[C@@H](NC(=O)[C@H](CCCCN)NC(=O)[C@@H](Cc1c[nH]c2ccccc12)NC(=O)[C@H](Cc1ccc(O)cc1)NC(=O)[C@H](Cc1ccc(O)cc1)NC(=O)[C@@H](N)Cc1ccc(O)cc1)[C@@H](C)O)C(N)=O [D9] (H-YYY[dW]KTYT-NH2)", "Selectivity index SI, MDA-MB-231": 0.28}
{"compound": "C[C@@H](O)[C@H](NC(=O)[C@H](Cc1ccccc1)NC(=O)[C@@H](NC(=O)[C@H](CCCCN)NC(=O)[C@@H](Cc1c[nH]c2ccccc12)NC(=O)[C@H](Cc1ccc(O)cc1)NC(=O)[C@H](Cc1ccc(O)cc1)NC(=O)[C@@H](N)Cc1ccc(O)cc1)[C@@H](C)O)C(N)=O [D6] (H-YYY[dW]KTFT-NH2)", "Selectivity index SI, MDA-MB-231": 0.66}
{"compound": "C[C@@H](O)[C@H](NC(=O)[C@H](Cc1ccccc1)NC(=O)[C@@H](NC(=O)[C@H](CCCCN)NC(=O)[C@@H](Cc1c[nH]c2ccccc12)NC(=O)[C@H](Cc1ccccc1)NC(=O)[C@H](Cc1ccccc1)NC(=O)[C@H](N)Cc1ccc(O)cc1)[C@@H](C)O)C(N)=O [D11] (H-[dY]FF[dW]KTFT-NH2)", "Selectivity index SI, MDA-MB-231": 0.50}
